Measured values drawn from PubChem BioAssay AID2060885 for this set.

viability, T/C values by entry
- Test system: NCI-H23 complex spheroids with HUVEC/MSC, viability
- MEASUREMENT_DESCRIPTION: Anticancer human tumor NCI-H23 cell line growth inhibition [RAS];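 also: spheroids exposed to compound for 7 days; 100% = DMSO vehicle control viability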
- CONDITION_DESCRIPTION: second compound 0.316 µM; first compound 0.03 µM; active compounds read low
Use % as the unit, but write only the number.

Previously resolved entries follow.
>>> result_value("CC1(C)CCC(Nc2ncc(C(F)(F)F)c(-c3c[nH]c4c(P(C)(C)=O)c(C#N)ccc34)n2)CN1 (centres undefined) + C=CC(=O)N1CCN(c2nc(OCC3CCCN3C)nc3c(F)c(-c4nc(N)cc(C)c4C(F)(F)F)c(Cl)cc23)C(C)C1")
20.7
>>> result_value("CCc1c2c(nc3ccc(O)cc13)-c1cc3c(c(=O)n1C2)COC(=O)[C@]3(O)CC + C=CC(=O)N1CCN(c2nc(OCC3CCCN3C)nc3c(F)c(-c4nc(N)cc(C)c4C(F)(F)F)c(Cl)cc23)C(C)C1")
3.62
>>> result_value("CCc1c2c(nc3ccc(O)cc13)-c1cc3c(c(=O)n1C2)COC(=O)[C@]3(O)CC + C#Cc1c(F)ccc2cc(O)cc(-c3ncc4c(N5CC6CCC(C5)N6)nc(OCC56CCCN5CC(F)C6)nc4c3F)c12")
12.8

Read the next record carefully.
Challenge: Return viability, T/C measured with NCI-H23 complex spheroids with HUVEC/MSC, viability given this compound: CC1(C)CCC(Nc2ncc(C(F)(F)F)c(-c3c[nH]c4c(P(C)(C)=O)c(C#N)ccc34)n2)CN1 (centres undefined) + C#Cc1c(F)ccc2cc(O)cc(-c3ncc4c(N5CC6CCC(C5)N6)nc(OCC56CCCN5CC(F)C6)nc4c3F)c12
Response given: 44.8

---

viability, T/C: recorded values
- Tested on: NCI-H23 complex spheroids with HUVEC/MSC, viability
- MEASUREMENT_DESCRIPTION: Anticancer human tumor NCI-H23 cell line growth inhibition [RAS];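 also: spheroids exposed to compound for 7 days; 100% = DMSO vehicle control viability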
- CONDITION_DESCRIPTION: second compound 0.000949 µM; first compound 1 µM; active compounds read low
Reply with just the number (in %).

>>> result_value("C=CC(=O)N1CCN(c2nc(OCC3CCCN3C)nc3c(F)c(-c4nc(N)cc(C)c4C(F)(F)F)c(Cl)cc23)C(C)C1 (configuration not stated) + CCn1c(-c2cc(N3CCN(C)CC3)cnc2C(C)OC)c2c3cc(ccc31)-c1csc(n1)CC(NC(=O)C1CC1C)C(=O)N1CCCC(N1)C(=O)OCC(C)(C)C2")
23.3

Challenge: Quick check: viability, T/C of CCN1CCN(Cc2ccc(Nc3ncc(F)c(-c4cc(F)c5nc(C)n(C(C)C)c5c4)n3)nc2)CC1 + CCn1c(-c2cccnc2C(C)OC)c2c3cc(ccc31)N1CCOC(CC(NC(=O)C(C(C)C)N(C)C(=O)C3(F)CCN(C(=O)C#CC(C)(C)N(C)C)CC3)C(=O)N3CCCC(N3)C(=O)OCC(C)(C)C2)C1 ?
Response given: 10.6

---

// reported viability, T/C for each item listed
- Tested on: NCI-H23 complex spheroids with HUVEC/MSC, viability
- MEASUREMENT_DESCRIPTION: Anticancer human tumor NCI-H23 cell line growth inhibition [RAS];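 also: spheroids exposed to compound for 7 days; 100% = DMSO vehicle control viability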
- CONDITION_DESCRIPTION: second compound 0.00316 µM; first compound 10 µM; active compounds read low
// note: answer is a bare numeric in %

Solved cases (4 shown):
>>> result_value("CC1(O)CCCC1n1c(=O)c(C(F)F)cc2cnc(NC3CCN(S(C)(=O)=O)CC3)nc21 (stereo not given) + C=CC(=O)N1CCN(c2nc(OCC3CCCN3C)nc3c(F)c(-c4nc(N)cc(C)c4C(F)(F)F)c(Cl)cc23)C(C)C1")
6.28
>>> result_value("CC(=O)OC12COC1CC(O)C1(C)C(=O)C(O)C3=C(C)C(OC(=O)C(O)C(NC(=O)OC(C)(C)C)c4ccccc4)CC(O)(C(OC(=O)c4ccccc4)C21)C3(C)C (stereo not given) + C=CC(=O)N1CCN(c2nc(OCC3CCCN3C)nc3c(F)c(-c4nc(N)cc(C)c4C(F)(F)F)c(Cl)cc23)C(C)C1")
41.9
>>> result_value("CCC(CC)c1cc(NC2CCC(N)C2)n2nccc2n1 (stereo not given) + C=CC(=O)N1CCN(c2nc(OCC3CCCN3C)nc3c(F)c(-c4nc(N)cc(C)c4C(F)(F)F)c(Cl)cc23)C(C)C1")
0.45
>>> result_value("NC1c2ccccc2OC12CCN(c1cnc3c(N4CCCc5ncccc54)n[nH]c3n1)CC2 (stereo not given) + C=CC(=O)N1CCN(c2nc(OCC3CCCN3C)nc3c(F)c(-c4nc(N)cc(C)c4C(F)(F)F)c(Cl)cc23)C(C)C1")
12.2

Now for a further molecule.
Challenge: // lookup viability, T/C | system=NCI-H23 complex spheroids with HUVEC/MSC, viability | key= CC(Nc1ccc2c(c1)OCCn1cc(N3C(=O)OCC3C(F)F)nc1-2)C(N)=O (stereo not given) + C=CC(=O)N1CCN(c2nc(OCC3CCCN3C)nc3c(F)c(-c4nc(N)cc(C)c4C(F)(F)F)c(Cl)cc23)C(C)C1
Response given: 38.3
